src = PubChem BioAssay AID2685

Assay Name: qHTS Assay for Lipid Storage Modulators in Drosophila S3 Cells;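 as to cell number change: cells counted by Cell Tracker Red CMTPX staining in the red channel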
Condition Context: BODIPY lipid droplet fluorescence, 18-24 h, cells fed with added oleic acid; measured here: cell count max response
About 2,100 (0.66%) of roughly 320,000 compounds were called active. Not shown: some 53% with an inconclusive outcome. The list comes from a sample in which actives are over-represented; it also holds close analogues and randomly drawn compounds.
Can you tell me cell number change for the items I'm about to list?
Use % as the unit, but write only the number.

Req: Query: cell number change; subject: O=C(c1cccc2ccccc12)N1CCCCC1
Resp: -5.25

Req: Param item: COc1ccccc1N(CC(=O)Nc1ccccc1C(=O)N1CCCC1)S(C)(=O)=O
Resp: 1.61

Req: Param item: c1cnc(N2CCN(c3ccc4ccccc4n3)CC2)nc1
Resp: 23.8

Req: Param item: COc1ccc(/C=N/OCC(=O)N2CC3(C)CC2CC(C)(C)C3)cc1 (centres undefined)
Resp: 10.1

Req: Param item: O=C(O)CCCC(=O)Nc1ccccc1C(=O)N1CCCC1
Resp: 0.517

Req: Param item: CCS(=O)(=O)N1CCN(C(=O)c2cccc3ccccc23)CC1
Resp: 17.9

Req: Param item: CN(C(=O)CCCN1CCCC1=O)C1CCCN(Cc2ccccc2F)C1 (centres undefined)
Resp: 6.08

Req: Param item: CC1=C(C(=O)N2CCc3ccccc32)C2(CCC(C)CC2)OC1=O (centres undefined)
Resp: -7.54

Req: Param item: CCN(C(=O)COC(=O)/C=C/c1ccc(O)c(OC)c1)C1CCS(=O)(=O)C1 (centres undefined)
Resp: -23.9

Req: Param item: COc1cccc(CN2CCSCC2)c1
Resp: 8.55

Req: Param item: COc1cc(CN2CCSCC2)cc(OC)c1OC
Resp: -0.391

Req: Param item: CCCCc1nc2ccccc2c(=O)n1NC(=O)c1c(O)c2ccccc2n(C)c1=O
Resp: -2.66

Req: Param item: Cc1ccc(OCC(=O)Nc2ccccc2C(=O)N2CCCCC2)cc1
Resp: 24.3

Req: Param item: COc1ccccc1N(CC(=O)Nc1ccccc1C(=O)N1CCOCC1)S(C)(=O)=O
Resp: 1.26

Req: Param item: CCn1c(=O)c(C(=O)NCc2ccccc2OC)c(O)c2ccccc21
Resp: 3.38

Req: Param item: Cn1c(-c2ccccn2)[n+](C)c2ccccc21
Resp: 8.68

Req: Param item: COc1ccccc1CN1CCSCC1
Resp: -20

Req: Param item: CCC(=O)Nc1ccccc1C(=O)N1CCCC1
Resp: 13.5

Req: Param item: c1ccc(C(c2ccccc2)N2CCN(c3ccc4ccccc4n3)CC2)cc1
Resp: 9.37

Req: Param item: COc1ccccc1CN1CCCCCC1
Resp: 10.4

Req: Param item: CC(C)=CC(O)C/C(C)=C/COc1ccc2ccc(=O)oc2c1 (centres undefined)
Resp: -2.96

Req: Param item: CCOc1ccccc1N(CC(=O)Nc1ccccc1C(=O)N1CCCC1)S(C)(=O)=O
Resp: -13.5

Req: Param item: O=C(c1ccncc1)N1CCN(C(=O)c2cccc3ccccc23)CC1
Resp: 6.28

Req: Param item: Cc1nc([N+](=O)[O-])c(SCC(N)=O)n1Cc1ccccc1
Resp: 11.1

====

Assay Name: qHTS Assay for Lipid Storage Modulators in Drosophila S3 Cells
Condition Context: BODIPY lipid droplet fluorescence, 18-24 h, cells fed with added oleic acid; series mostly up to 46.1 µM
Out of some 320,000 compounds screened, about 2,100 (0.66%) were called active. Not shown: some 53% with an inconclusive outcome. Calls follow the shape of the dose curve; as a rule, active = well fitted inhibition curve with a large enough effect in the signal ratio, with a control signal flat (not every such curve was filed as active); inconclusive = small, poorly fitted or top-dose-only effect, or effect the other way, or a change in a side signal; inactive = flat fitted curve, though single readings scatter; the % refers to the signal ratio. The sample holds actives, similar compounds and a random draw of the others, so the mix is not that of the screen.
# output must be one of 1.0 = active, 0.0 = inactive

Req: Which outcome did this test record for the compound N#Cc1sc2nc(-c3cccs3)cc(-c3ccc(F)cc3)c2c1N ?
Resp: 0.0

Req: Param item: Cc1ccc(NC(=O)CCC(=O)Nc2ccc(C)cc2)cc1
Resp: 0.0

Req: Param item: O=C(Cn1cc(S(=O)(=O)Cc2ccccc2F)c2ccccc21)N1CCOCC1
Resp: 0.0

Req: Param item: Cc1cc(Br)ccc1SCC(=O)N1CCN(S(=O)(=O)c2ccccc2)CC1
Resp: 0.0

Req: Param item: COC(=O)COc1nsnc1N1CCOCC1
Resp: 1.0

Req: Param item: COCCNc1nnc(Cc2ccc(Cl)cc2)c(=O)[nH]1
Resp: 0.0

Req: Param item: CC1CCCN(CCC(=O)c2ccc(Br)cc2)C1 (stereo not given)
Resp: 0.0

Req: Param item: Cc1ccc(NC(=O)COC(=O)CCc2ccc(S(=O)(=O)N3CCOCC3)cc2)c(C)c1
Resp: 0.0

Req: Param item: Cc1ccc(NC(=O)COC(=O)C2CCC(=O)N2)c(S(=O)(=O)N2CCOCC2)c1 (stereo not given)
Resp: 1.0

Req: Param item: CCN(CC)C(=O)c1sc2nc(-c3cccs3)cc(-c3ccc(Cl)cc3)c2c1N
Resp: 1.0

Req: Param item: O=C(Nc1ccc(C(=O)N2CCOCC2)cc1)Nc1cccc(Cl)c1
Resp: 0.0

Req: Param item: COc1ccc(NC(=O)N2CCCC(C(=O)NC(C)C)C2)cc1 (stereo not given)
Resp: 0.0

Req: Param item: CCCCCC/C=N/Nc1nnc(Cc2ccc(OC)c(OC)c2)c(=O)[nH]1
Resp: 0.0

Req: Param item: CC(=O)c1cccc(NC(=O)Nc2ccc(C(=O)N3CCCC3)cc2)c1
Resp: 0.0

Req: Param item: Cc1cc(C)n2ncc(C(=O)O)c2n1
Resp: 0.0

Req: Param item: Cc1cccc2cc(COC(=O)C3CCCCC3)c(=O)[nH]c12
Resp: 0.0

Req: Param item: O=C(NCc1c(Cl)cccc1Cl)c1ccc2nnsc2c1
Resp: 0.0

Req: Param item: Cc1cccc(N2CCN(C(=O)CC(NC(=O)c3ccccc3Cl)c3ccccc3)CC2)c1C (stereo not given)
Resp: 1.0

Req: Param item: CN1CCN(C(=O)c2cc(Cl)ccc2NC(=O)c2ccc(Cl)cc2Cl)CC1
Resp: 0.0

Req: Param item: O=[N+]([O-])c1cc(C(F)(F)F)ccc1NCCCCNS(=O)(=O)c1ccc(Cl)cc1
Resp: 1.0

Req: Param item: COc1ccc(N2C(=O)C(CC(=O)Nc3ccccc3)N(CCc3ccc(OC)c(OC)c3)C2=O)cc1 (stereo not given)
Resp: 0.0

Req: Param item: Cc1cccc(NC(=O)CCC(=O)N2CCOCC2)n1
Resp: 0.0

Req: Param item: CCOC(=O)C1=C(CN2CCN(C(=O)c3ccco3)CC2)NC(=O)NC1c1ccc(F)cc1 (stereo not given)
Resp: 0.0

Req: Param item: S=C1NCN(C2CCCCC2)CN1Cc1ccccc1
Resp: 0.0

Req: Param item: Clc1ccc(C2=Nn3c(nnc3-c3cccnc3)SC2)s1
Resp: 0.0

Req: Param item: COc1ccc(NC(=O)N2CCCC(C(=O)Nc3ccccc3OC)C2)cc1 (stereo not given)
Resp: 0.0

Req: Param item: O=C(CSc1ncn[nH]1)c1ccc(OC(F)F)cc1
Resp: 0.0

Req: Param item: O=C(/C=C/Nc1ccc(Br)cn1)c1cccc(OC(F)F)c1
Resp: 0.0

Req: Param item: COc1ccc(NC(=O)COc2ccc3c(c2)CCC3)cc1
Resp: 1.0

Req: Param item: O=C(COC(=O)C1CCC(=O)N1)Nc1ccc(Cl)cc1Cl (stereo not given)
Resp: 0.0

Req: Param item: Cc1ccc(C(C)C)c(OCC(=O)Nc2ccc3c(c2)nc(CCN2CCCCC2)n3C)c1
Resp: 0.0

Req: Param item: Cc1nc(NS(=O)(=O)c2ccccc2)sc1NC(=O)Nc1ccc(Cl)cc1
Resp: 0.0

Req: Param item: O=C(COc1nsnc1N1CCOCC1)N1CCOCC1
Resp: 0.0

Req: Param item: COc1ccc(C(=O)CCN2CCCC(C)C2)cc1 (stereo not given)
Resp: 1.0

Req: Param item: COc1cccc(NC(=O)COc2ccc3c(c2)CCC3)c1
Resp: 0.0

Req: Param item: COc1ccc(CC2(CO)CCN(C(C)Cc3ccc(Cl)cc3)CC2)cc1 (stereo not given)
Resp: 0.0

Req: Param item: CCOc1ccc(NC(=O)COc2ccc3c(c2)CCC3)cc1OC
Resp: 0.0

Req: Param item: CS(=O)(=O)NCCCCNc1ccc(C(F)(F)F)cc1[N+](=O)[O-]
Resp: 0.0

Req: Param item: Cc1ccc(NC(=O)CC(NC(=O)c2ccccc2Cl)c2ccccc2)nc1 (stereo not given)
Resp: 0.0

Req: Param item: COc1ccc2c(c1)c(CC(=O)Nc1cccc(S(N)(=O)=O)c1)c(C)n2C(=O)c1ccc(Cl)cc1
Resp: 0.0

Req: Param item: CCOC(=O)C1=C(C)NC(=O)NC1c1ccc(OC(=O)c2ccco2)cc1 (stereo not given)
Resp: 0.0

Req: Param item: O=C(Cc1cccs1)NCCn1ccc2ccccc21
Resp: 0.0

Req: Param item: Cc1ccc(-c2cc(C(F)(F)F)n3ncc(C(=O)O)c3n2)cc1
Resp: 0.0

Req: Param item: CCCCC1=CC2=CC(=O)C(C)(OC(=O)CC)C(=O)C2=CN1CCCCO (stereo not given)
Resp: 0.0

Req: Param item: Cc1ccc(-n2ncc3c(=O)[nH]c(SCC(=O)N4CCCc5ccccc54)nc32)cc1
Resp: 0.0
